Every entry's value here was drawn from the Deep4Chem optical property database.

- assay-procedure: solvent given as SMILES
- recorded-conditions: in CN(C)C=O
absorption maximum values for the molecules below.
# output: bare number, implied unit nm

Consider the reported absorption maximum for these molecules:
CCc1ccc(/C=N/c2cc(C(C)C)c(O)cc2C)cc1    351
Fc1cc(-c2ccc(-c3nc4ccccc4[nH]3)cc2)ccc1-c1ccc(-c2nc3ccccc3[nH]2)cc1    343

Notebook: CCCCCCC(CCCCCC)N1C(=O)c2cccc3c(-c4ccc(-c5ccc(OC)cc5)cc4)ccc(c23)C1=O , absorption maximum read as 369

Notebook: O=c1cc(COc2ccc(I)cc2)c2c(ccc3ccccc32)o1 , absorption maximum read as 350

Notebook: c1ccc(-c2csc(-c3ccncc3)n2)cc1 , absorption maximum read as 323

Notebook: CN(C)c1ccc(/C=C/C=C2\CC/C(=C\C=C\c3ccc(N(C)C)cc3)C2=O)cc1 , absorption maximum read as 507

Notebook: CC1=CC(C)=[N+]2C1=C(c1ccc(-c3c4ccccc4c(-c4ccccc4)c4ccccc34)cc1)c1c(C)cc(C)n1[B-]2(F)F , absorption maximum read as 500

Notebook: CC1=CC(C)=[N+]2C1=C(c1c3ccccc3c(-c3ccccc3)c3ccccc13)c1c(C)cc(C)n1[B-]2(F)F , absorption maximum read as 507

Notebook: Cc1ccc(NC(=O)c2sc(Br)nc2C)cc1 , absorption maximum read as 287.1

====

- assay-procedure: solvent given as SMILES
- recorded-conditions: in ClCCl
absorption maximum values for the compounds below.
# output: bare number, implied unit nm

Consider the reported absorption maximum for these compounds:
COc1ccccc1-c1c(-c2ccccc2O)nc(-c2ccc(C(F)(F)F)cc2)n1-c1ccc(C)cc1    313
COc1ccc(-c2c3cc4ccccc4cc3c(-c3ccc(OC)cc3)c3cc4sc(C)cc4cc23)cc1    550
CCOC(=O)c1c(-c2cc3ccc(OCC=C(C)C)cc3oc2=O)nn(-c2cccc(Cl)c2)c1C(=O)OCC    339
CCCCCCCCOc1ccc(C#Cc2ccc3oc4ccccc4c3c2)c(OCCCCCCCC)c1    314

Here is another compound to look at.
Notebook: CCCCC(CC)COc1ccc2nc(-c3ccc(-c4ccc(OC)cc4)s3)sc2c1 (stereo not given) , absorption maximum read as 365

====

- assay-procedure: solvent given as SMILES
- recorded-conditions: in CCOC(C)=O
# if value of absorption maximum reaches 400 nm, tag y; if it stays below, tag n

Worked examples follow.
Nc1ccc(C#Cc2ccc3ccc4ccc(C#Cc5ccc(N)cc5)c5ccc2c3c45)cc1    y
CCn1c2ccccc2c2cc(C#Cc3cc(C#Cc4ccc5c(c4)c4ccccc4n5CC)nc(OC)n3)ccc21    n
CCc1c(C)c2n(c1C)[B-](F)(F)[N+]1=C(NCc3ccc(OC)cc3)C(SC#N)=CC1=C2C    y

Prompt line: API: above_or_equal(metric=absorption maximum, cutoff=400 nm) for item O=C1/C(=C\c2ccc(N(c3ccccc3)c3ccccc3)cc2)S(=O)(=O)c2ccccc21
Response line: y

Prompt line: API: above_or_equal(metric=absorption maximum, cutoff=400 nm) for item COC1=[N+]2C(=C(c3ccccc3)c3ccc(OC)n3[B-]2(F)F)C=C1
Response line: y

====

- assay-procedure: solvent given as SMILES
- recorded-conditions: in NC=O
absorption maximum values for the compounds below.

Consider the reported absorption maximum for these compounds:
O=Cc1cc(O)c(C=O)cc1O    356 nm
COCCOCCOCCOc1ccc(OCCOCCOCCOC)c(C=O)c1    352 nm
COC(=O)C(Cc1ccc2oc(-c3ccc(N(c4ccccc4)c4ccccc4)cc3)nc2c1)NC(=O)OC(C)(C)C (centres undefined)    367.45 nm

Notebook: COC(=O)C(Cc1ccc2oc(-c3ccc4c(c3)c3ccccc3n4-c3ccccc3)nc2c1)NC(=O)OC(C)(C)C (centres undefined) , absorption maximum read as 327.7 nm

====

- assay-procedure: solvent given as SMILES
- recorded-conditions: in ClCCl
absorption maximum values for the compounds below.
# output: bare number, implied unit nm

Consider the reported absorption maximum for these compounds:
CCc1c(C)c2n(c1C)[B-](F)(F)[N+]1=C(NCc3ccc(OC)cc3)C(SC#N)=CC1=C2C    568
C(=C\c1ncc2ccccc2n1)/c1ccc(N(c2ccccc2)c2ccccc2)cc1    400
CCC1(CC)c2cc(C=C(C#N)C#N)ccc2-c2ccc(N(C)C)cc21    490
CCCCCCCCC1(CCCCCCCC)c2cc(C#CC#Cc3ccc(N(c4ccccc4)c4ccccc4)cc3)ccc2-c2ccc(C=O)cc21    365
Cc1cccc2cc3c(=O)n(C)c(=O)n(C)c3nc12    362

Notebook: Cc1ccc2ccc3cccc4ccc1c2c34 , absorption maximum read as 341

Notebook: CCCCCCCCCCCCOc1ccc(C#Cc2ccc(C#Cc3ccc(OCCCCCCCCCCCC)c(OCCCCCCCCCCCC)c3)c3nc4c5ccccc5c5ccccc5c4nc23)cc1OCCCCCCCCCCCC , absorption maximum read as 461

Notebook: CCOC(=O)C1=C(C(=O)OCC)C2(c3ccccc3-c3ccccc32)[C@@H](c2ccccc2)C=C2c3cc(OC)c(OC)cc3CCN21 , absorption maximum read as 311

Notebook: N#Cc1ccc(C#Cc2ncc(-c3ccccc3)o2)cc1 , absorption maximum read as 345

====

absorption maximum values for the molecules below.
- assay-procedure: solvent given as SMILES
- recorded-conditions: in C1CCOC1
# output: bare number, implied unit nm

Notebook: OC1(c2ccc(-c3cccs3)s2)CCCCC1 , absorption maximum read as 312

Notebook: c1ccc(-c2ccc(-c3ccc(-n4c5ccccc5c5ccccc54)cc3)c3nsnc23)cc1 , absorption maximum read as 394

Notebook: Cc1c2oc3c(C)c(N)cc(C(=O)NC4OC(=O)C(C(C)C)N(C)C(=O)CN(C)C(=O)C5CCCN5C(=O)C(C(C)C)NC4=O)c3nc-2c(C(=O)NC2OC(=O)C(C(C)C)N(C)C(=O)CN(C)C(=O)C3CCCN3C(=O)C(C(C)C)NC2=O)c(N)c1=O (stereo not given) , absorption maximum read as 524.93

Notebook: C1=Cc2ccccc2C(=Cc2ccc(-c3ccc(C=C4c5ccccc5C=Cc5ccccc54)cc3)cc2)c2ccccc21 , absorption maximum read as 339

Notebook: Cc1ccc(-n2c3ccccc3c3cc(C=C(C#N)C#N)ccc32)cc1 , absorption maximum read as 407

Notebook: Cc1ccc(C2=C3C=CC(Oc4ccccc4)=[N+]3[B-](F)(F)n3c(Oc4ccccc4)ccc32)cc1 , absorption maximum read as 516

Notebook: Clc1ccc(/C=C/c2ccc(-c3nc4c5cccnc5c5ncccc5c4[nH]3)cc2)cc1 , absorption maximum read as 376

Notebook: COC(=O)C(Cc1ccc2oc(-c3ccc(N(c4ccccc4)c4ccccc4)cc3)nc2c1)NC(=O)OC(C)(C)C (stereo not given) , absorption maximum read as 362.85

Notebook: CC1(C)CC(=O)C2=C(C1)Oc1ccc3cc(O)ccc3c1C2c1ccccn1 (stereo not given) , absorption maximum read as 349

Notebook: C[Si]1(c2ccccc2)C(c2ccc3c4ccccc4n(-c4ccccc4)c3c2)=C(c2ccccc2)C(c2ccccc2)=C1c1ccc2c3ccccc3n(-c3ccccc3)c2c1 , absorption maximum read as 398

====

- assay-procedure: solvent given as SMILES
- recorded-conditions: in CO
absorption maximum values for the compounds below.
# output: bare number, implied unit nm

Consider the reported absorption maximum for these compounds:
F[B-]1(F)n2c(NCc3ccccc3)ccc2C(c2c(Cl)cccc2Cl)=C2C=CC(NCc3ccccc3)=[N+]21    579
CC1(C)Cc2c(c3ccccc3c3nc4ccccc4nc23)O1    458.09
CCCC(=O)c1c2c(c(C(=O)CCC)c3c1OC(CC(=O)OC)(C(=O)O)O3)OCO2    442
CCCN1/C(=C/C=C(/C=C/C2=[N+](CCC)c3ccccc3C2(C)C)c2ccc3ccccc3n2)C(C)(C)c2ccccc21    629
CCC1=C(C)C2=C(C)c3c(C)c(CC)c(C)n3[B-](F)(F)[N+]2=C1C    516.2

Notebook: COC1=C/C(=C\C=C2C=CN(Cc3ccc(Br)cc3)C=C2)C=CC1=O , absorption maximum read as 537

Notebook: F[B-]1(F)n2c(nc(-c3ccccc3)c2-c2ccccc2)-c2cccc[n+]21 , absorption maximum read as 391

Notebook: CCC1(CC)c2cc(-c3ccc(-c4ccc5c(c4)C(CC)(CC)c4cc(C(C)(C)C)ccc4-5)cc3)ccc2-c2ccc(C(C)(C)C)cc21 , absorption maximum read as 332.42

Notebook: Cc1cc(-c2ccccc2)nc2c1ccc1nc(-c3ccccc3)cn12 , absorption maximum read as 345

Notebook: Cc1ccc2ccc3cccc4ccc1c2c34 , absorption maximum read as 338

====

absorption maximum values for the compounds below.
- assay-procedure: solvent given as SMILES
- recorded-conditions: in C1CCOC1
# output: bare number, implied unit nm

Notebook: N#Cc1c(N2CCCCC2)cc(-c2ccc3ccccc3c2)c2c1Cc1ccccc1-2 , absorption maximum read as 362

Notebook: Cc1cc(C)c(B(c2ccc(-c3ccc(-c4nc5c6ccccc6c6ccccc6c5[nH]4)cc3)cc2)c2c(C)cc(C)cc2C)c(C)c1 , absorption maximum read as 375

Notebook: O=c1cc(COc2ccc(I)cc2)c2c(ccc3ccccc32)o1 , absorption maximum read as 349
